Data provenance is ChEMBL document CHEMBL1201862.

HCT-15 measurements of log10(GI50), listed per entry.
Friendly reminder: values = log10 of GI50, unit µM.

* CN(C)C=C1C(Cl)=C(C=O)CC(C=O)=C1Cl | 0.53
* CCOc1ccc(/C=C2\NC(=S)N(/C=C3\C(=O)Oc4ccccc4C3=O)C2=O)cc1 | 1.32
* COc1c(OC(C)=O)c(OC(C)=O)cc2c1-c1ccc(SC)c(=O)cc1C(NC(C)=O)CC2 (stereo unspecified) | 0.99
* CCCCCC/C=C1\CCC(CN(C)C)C1=O (stereo unspecified) | 0.39

Then there is this molecule:
Request: Record lookup: for HCT-15, what log10(GI50) belongs to CC1CCC2C(C)C(OC(=O)CCC(=O)O)OC3OC4(C)CCC1C32OO4 (stereo unspecified) ?
Response: -0.41

* * *

GI50: recorded values
system: SN12C; assay: NCI tumour cell line growth inhibition, 48 h
Calls of active or inactive are those of the source. No stated cut-off is given here; in the data, active = GI50 up to about 1.1 µM and inactive = higher.

Request: Record lookup: for SN12C, what GI50 belongs to "CCOC(=O)c1ccc(C(=O)/C(C(=O)OC(C)(C)C)=C2\CCCN2C)n1C" ?
Response: > 100 µM (inactive)

Request: Record lookup: for SN12C, what GI50 belongs to COc1ccc(C2COc3cc(OC(C)=O)c(OC(C)=O)cc3C2)cc1 (configuration not stated) ?
Response: 17.5 µM (inactive)

Request: Record lookup: for SN12C, what GI50 belongs to O=C(O)CC1NC(/C(=C/c2ccccc2)NC(=O)c2ccccc2)OC1=O (configuration not stated) ?
Response: 43.3 µM (inactive)

Request: Record lookup: for SN12C, what GI50 belongs to CC(C)(C)C1C=C(Sc2ccccc2)C(=O)O1 (configuration not stated) ?
Response: 36.2 µM (inactive)

Request: Record lookup: for SN12C, what GI50 belongs to "C/C(=N\NC(N)=S)c1ccc(/C(C)=N/NC(N)=S)cc1" ?
Response: > 100 µM (inactive)

Request: Record lookup: for SN12C, what GI50 belongs to "CCOC(=O)C1=C(Nc2ccc(Cl)cc2Cl)OCC1=O" ?
Response: > 100 µM (inactive)

Request: Record lookup: for SN12C, what GI50 belongs to "CCOC(=O)CN(CC)C(=O)NC12CC3CC(CC(C3)C1)C2" ?
Response: 288 µM (inactive)

* * *

GI50: recorded values
system: SF-268; experiment: NCI tumour cell line growth inhibition, 48 h
Active and inactive are the calls of the source. Rule as the data show it: active = GI50 up to about 1.1 µM and inactive = higher.

Completed entries (count: 5):
- Cc1cc(NS(=O)(=O)c2ccc(Nc3c4ccccc4nc4c(C(=O)Nc5ccc(S(=O)(=O)N=C(N)N)cc5)cccc34)cc2)no1: > 100 µM (inactive)
- CCOC(=O)C1=C(O)C(=O)c2ccccc2C1=O: > 100 µM (inactive)
- CN(C)C(=S)/N=c1\ss/c(=N\C(=S)N(C)C)n1-c1cccc(Cl)c1: > 100 µM (inactive)
- C1CSC(=[N+]2CC[N+](=C3SCCS3)CC2)S1: > 100 µM (inactive)
- CC[P+]1(CC)CCCC1: > 100 µM (inactive)

Then there is this compound:
Request: Quick check: GI50 of COC(=O)C1(Cc2ccccc2)Cc2ccccc2C1=O (stereo unspecified) ?
Response: 70.8 µM (inactive)

* * *

GI50: recorded values
system: DMS-114; assay: NCI tumour cell line growth inhibition, 48 h
The source made the active and inactive calls. Rule as the data show it: active = GI50 up to about 1.1 µM and inactive = higher.

Completed entries (count: 3):
- CCOC(=O)NC(=O)c1cn(CCCCCCCCCCC(=O)NCCCN2CCN(CCCNC(=O)CCCCCCCCCCn3cc(C(=O)NC(=O)OCC)c(=O)[nH]c3=O)CC2)c(=O)[nH]c1=O: > 100 µM (inactive)
- Cc1c(C)c(CC(=O)N2CC2)c(C)c(C)c1CC(=O)N1CC1: 11.5 µM (inactive)
- Nc1c(Br)c(=O)[nH]c(=O)n1COCCO: > 100 µM (inactive)

Request: Quick check: GI50 of COC12OCCN(C)C1=CC(=O)C1N=NCC12 (stereo unspecified) ?
Response: > 100 µM (inactive)

Request: Quick check: GI50 of CCOC(=O)C(C)c1cc(C2(C)OCCO2)c(C)o1 (stereo unspecified) ?
Response: > 100 µM (inactive)

Request: Quick check: GI50 of "CN(C)C(=S)/N=c1\ss/c(=N\C(=S)N(C)C)n1-c1cccc(Cl)c1" ?
Response: > 100 µM (inactive)
